# credit: PubChem BioAssay AID1259309

# assay explanation: growth inhibition of ugtP-null S. aureus, primary screen, RN4220 ugtP deletion, OD600 (AID 1259309);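 also: plate controls were untreated wells for no effect and antibiotic for full effect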
# conditions used: 16 h, hits give high values
Hit rate of the full screen: of about 330,000 compounds, about 1,800 (0.55%) were called active. This excerpt belongs to a sample that is enriched for actives.
quantity: growth inhibition (%)
# unit: % | format: bare number

# count of solved cases: 6
1) CCN(CC)CCCSc1nc2ccccc2s1 | 5.71
2) N#C/C(=C/c1ccc(Cl)cc1)NC(=O)c1ccccc1 | -7.93
3) COC(=O)C1C[C@@]2(O)C(O)C(O)C(O)CC2N1Cc1cc(F)ccc1F (stereo partly drawn) | -1.93
4) Cc1[nH]n(-c2cccc(Cl)c2)c(=O)c1-c1ccc(Cl)cc1 | 87.7
5) COc1ccc(-c2cc(C3CCN(c4ncccc4[N+](=O)[O-])CC3)[nH]n2)cc1 | 100
6) COc1ccc(-c2cc3ncccc3cn2)cc1 | 7.34

**Query** If you can, please state the reported growth inhibition value of C[C@]12CCC3c4ccc(O)cc4CCC3C1CCC2OC(=O)CCC(=O)O (stereo partly drawn) .
**Result** 1.18

**Query** What about this compound? CCCCN1C(=N)N(C(C)CN2CCCC2CN2C(N)=NCC2Cc2ccccc2)CC1C(C)CC (stereo not drawn)
**Result** 2.45

**Query** What about this compound? COC(=O)c1cc(OC)ccc1-c1ccc(OC)cc1
**Result** 24.4

**Query** What about this compound? CCOC(=O)CN1C(=O)NC(c2ccco2)C(C(C)=O)=C1C (stereo not drawn)
**Result** -0.836

**Query** What about this compound? Cc1cc(C)n(C(=O)CCNC(=O)c2ccccc2Cl)n1
**Result** -2.2

**Query** What about this compound? N#CC(=NNc1ccc(Cl)cc1)C(=O)c1ccccc1
**Result** 99.4

---

# assay explanation: growth inhibition of ugtP-null S. aureus, primary screen, RN4220 ugtP deletion, OD600 (AID 1259309);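 also: plate controls were untreated wells for no effect and antibiotic for full effect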
# conditions used: 16 h, hits give high values
About 1,800 (0.55%) of roughly 330,000 compounds were called active. This is one part of a sample in which actives are shown more often than they occur.
quantity: growth inhibition (%)
# unit: % | format: bare number

1) O=C(Nc1ncc([N+](=O)[O-])s1)C1COc2ccccc2O1 (stereo unspecified) | 90.5
2) COc1ccccc1NC(=O)c1ccc2nc(N3C(=O)CCC3=O)sc2c1 | -9.64
3) COc1ccc(C(=O)Nc2cccc(/C=C(/CCC(=O)O)c3nc4ccccc4s3)c2)cc1 | -2.4
4) COc1ccc2c(c1)SC(C)CC2=O (stereo unspecified) | -4.08
5) COc1ccccc1C(=O)NCC(=O)OCC(=O)Nc1nnc(-c2ccccc2)o1 | -1.67

Next:
**Query** If you can, please state the reported growth inhibition value of CC(=NNc1ccc(S(=O)(=O)N2CCCCC2)cn1)c1ccc(O)cc1 .
**Result** -0.0996

---

# assay explanation: growth inhibition of ugtP-null S. aureus, primary screen, RN4220 ugtP deletion, OD600 (AID 1259309);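 also: plate controls were untreated wells for no effect and antibiotic for full effect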
# conditions used: 16 h
Among all 330,000 compounds or so, about 1,800 (0.55%) were called active. Rule as the data show it: active = growth inhibition above about 68%; inactive = the rest. The list comes from a sample in which actives are over-represented; it also holds close analogues and randomly drawn compounds.
Can you answer with just one of these options? active, inactive

Solved entries (count: 8):
1) Cc1nn(-c2ccccc2)c(Cl)c1/C=C/C(=O)c1ccc(O)cc1 | active
2) COc1ccc(C=NNC(=O)c2cc[n+]([O-])cc2)cc1 | inactive
3) Cc1cc(C)nc(N=C(N)Nc2ccc(SC(F)F)cc2)n1 | inactive
4) O=C(Nc1ccc2ccccc2c1)Nc1ccc2snnc2c1 | active
5) CSCc1cc(N2CCOCC2)nc(SCc2ccc(Cl)cc2Cl)n1 | active
6) COc1ccc(C=CC2=CCN(Cc3ccc(OC)cc3)CC2)cc1 | inactive
7) Cc1nnc(SCC(=O)NC2CCCC2)s1 | inactive
8) COc1ccc(S(=O)(=O)Nc2cccc3c2OC(CN(C)Cc2ccc(Cl)c(Cl)c2)C(C)CN(C(C)CO)C3=O)cc1 (stereo not given) | inactive

**Query** Just curious, what result did COc1cccc(C=NNC(=O)CSCC(=O)Nc2ccccc2)c1O get here?
**Result** inactive

**Query** What about this compound? CCCc1cc(-c2nc(-c3ccc(C)cc3)cs2)ccn1
**Result** inactive

**Query** What about this compound? Cc1ccsc1C(=O)OCC(=O)c1cc(C)n(CC2CCCO2)c1C (stereo not given)
**Result** inactive

**Query** What about this compound? Cc1cccc(-n2c(C)cc(C=NNC(=O)c3ccco3)c2C)c1
**Result** inactive

**Query** What about this compound? O=C(NN=Cc1cccs1)c1cnccn1
**Result** inactive

**Query** What about this compound? O=c1c2nnn(-c3ccccc3)c2ncn1CC=Cc1ccccc1
**Result** inactive

**Query** What about this compound? CC(C)C(NC(=O)c1ccc(Cl)cc1)C(=O)O (stereo not given)
**Result** inactive

**Query** What about this compound? Cc1cc(C(=O)CCl)c(C)n1CC1COc2ccccc2O1 (stereo not given)
**Result** active

**Query** What about this compound? CC(=NNC(=O)c1cc(-c2ccc(Br)s2)[nH]n1)c1ccncc1
**Result** inactive

**Query** What about this compound? CC(=NNC(=O)c1c(C)nc2ccccn12)c1ccccc1F
**Result** inactive

**Query** What about this compound? COc1ccc(-c2csc3ncnc(N4CCN(S(=O)(=O)c5ccccc5C#N)CC4)c23)cc1
**Result** active

**Query** What about this compound? COc1cccc(C=NNc2ncnc(N)c2[N+](=O)[O-])c1OC
**Result** inactive

**Query** What about this compound? COc1cc(C(=O)NN=Cc2cn(Cc3cccc(F)c3)c3ccccc23)ccc1O
**Result** inactive

**Query** What about this compound? Cc1ccc(C(=O)/C=C/c2c(C)nn(-c3ccccc3)c2Cl)cc1
**Result** inactive

**Query** What about this compound? S=C(Nc1ccccc1)Nc1ccc2ccccc2c1
**Result** inactive

**Query** What about this compound? CSCc1cc(N(C)C)nc(SCc2ccc(Cl)cc2Cl)n1
**Result** inactive

**Query** What about this compound? CC(C)c1ccc2c(c1)c(SC(C)(C)C)c(CC(C)(C)C(=O)O)n2Cc1ccc(Cl)cc1
**Result** active

**Query** What about this compound? O=C(CSc1nc2ccccc2n1Cc1ccc(Cl)cc1)NN=Cc1ccccc1C(=O)O
**Result** inactive

---

# assay explanation: growth inhibition of ugtP-null S. aureus, primary screen, RN4220 ugtP deletion, OD600 (AID 1259309);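 also: plate controls were untreated wells for no effect and antibiotic for full effect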
# conditions used: 16 h, hits give high values
Screen size: about 330,000 compounds; about 1,800 (0.55%) were called active. Shown is part of a subset that was picked to be rich in actives.
quantity: growth inhibition (%)
# unit: % | format: bare number

1) COc1cc(OC)c(S(=O)(=O)Nc2ccccc2C(=O)O)cc1S(=O)(=O)Nc1ccccc1C(=O)O | 7.58
2) CS(=O)(=O)c1ccc(CNC(=O)[C@]2(C(F)(F)F)CC(CCc3ccccc3)CCCO2)cc1 (stereo partly specified) | -0.803
3) CC(=NNC(=O)CNC(=O)C1COc2ccccc2O1)c1ccc([N+](=O)[O-])cc1 (stereo unspecified) | 0.446
4) CON=Cc1cc(C(=O)c2ccc(Cl)cc2Cl)cn1C | -4.32
5) C#CCOCCOCCOCCNc1nc(N2CCN(C(=O)C(CCCCN)n3cc(CCCC)nn3)CC2)nc(N2CCN(C(=O)C(C(C)CC)n3cc(CCCN=C(N)N)nn3)CC2)n1 (stereo unspecified) | 11.2

**Query** If you can, please state the reported growth inhibition value of CC(=O)c1cccc(NC(=O)C2COc3ccccc3O2)c1 (stereo unspecified) .
**Result** 8.46

---

# assay explanation: growth inhibition of ugtP-null S. aureus, primary screen, RN4220 ugtP deletion, OD600 (AID 1259309);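 also: plate controls were untreated wells for no effect and antibiotic for full effect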
# conditions used: 16 h, hits give high values
The whole screen tested about 330,000 compounds, of which about 1,800 (0.55%) were called active. This excerpt belongs to a sample that is enriched for actives.
quantity: growth inhibition (%)
# unit: % | format: bare number

**Query** If you can, please state the reported growth inhibition value of O=C(NCc1ccc2c(c1)OCO2)c1c(-c2ccsc2)sc2ccccc12 .
**Result** 13.5

**Query** What about this compound? N#CC(=NNc1cc(Cl)cc(Cl)c1)c1nnc2n1CCCCC2
**Result** -12

**Query** What about this compound? COc1ccc(C=NNC(=O)CCc2n[nH]c(=O)[nH]c2=O)cc1OC
**Result** -0.0548

**Query** What about this compound? O=[N+]([O-])c1c(NCCO)cc(Sc2nc3ccccc3s2)c2nonc12
**Result** 99.9

**Query** What about this compound? O=C(Cn1nc2ccccc2n1)NN=Cc1cc(Cl)cc([N+](=O)[O-])c1O
**Result** 2.61
